B1: SMARCE1 (parent)
chain: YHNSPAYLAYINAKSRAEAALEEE

- Variants of: B1
- Protocol: protein stability index of a GFP-peptide fusion (GPS, HEK-293T) (PSI 1-6); higher = more stable;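 note: lentivirally expressed fusions sorted by FACS into six bins by GFP to DsRed ratio, PSI derived from sequencing read proportions per bin multiplied by bin number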
- Condition Set: c terminus: a fixed tail appended
Record form. Attribute: protein stability index. Fill in for each entry.

Please review the following examples before continuing.
- YMNSPAYLAYINAKSRAEAALEEE: 1.96
- YHNSPAYLAYIIAKSRAEAALEEE: 1.64
- YHNSPAYLAYINAKSRAEVALEEE: 2.58
- YHNSPAYLAHINAKSRAEAALEEE: 1.68
- YHNSPALLAYINAKSRAEAALEEE: 2.28
- YHNIPAYLAYINAKSRAEAALEEE: 2
- YHNSPAYLAYINAKSRADAALEEE: 2.4
- YHNSPAYLAYILAKSRAEAALEEE: 2.1

// each variant listed below needs its protein stability index
1. YHASPAYLAYINAKSRAEAALEEE
2. YHNSPAYLAYINAKSRAEAALQEE

Result:
1: 2.05; 2: 1.91
